Tested on: phosphorylated ERK1/2 (pERK)
MEASUREMENT PROTOCOL: in vitro pERK inhibition in DETROIT-562
Assay type: cell-based
TEST CONDITIONS: Homo sapiens; DETROIT-562 cells
VALUE TYPE: IC50

>>> value("C[C@@H]1OCC2(CCN(c3cnc(Sc4ccnc(N)c4Cl)c(N)n3)CC2)[C@@H]1N")
"0.035 µM"

====

Tested on: DETROIT-562 (pharyngeal squamous cell carcinoma) cancer cell line
MEASUREMENT PROTOCOL: antiproliferation in DETROIT-562
Type: cell-based
TEST CONDITIONS: Homo sapiens; DETROIT-562 cells
pIC50: −log10 of the molar value.
VALUE TYPE: pIC50

>>> value("C[C@@H]1OCC2(CCN(c3cnc(Sc4ccnc(N)c4Cl)c(N)n3)CC2)[C@@H]1N [TNO155]")
6.33
